Tested on: Saccharomyces cerevisiae
assay comment: Antifungal activity against recombinant Saccharomyces cerevisiae Y570 overexpressing CaCdr1 assessed as inhibition of fungal growth incubated for 48 hrs by microbroth dilution method
Type: functional
Reported MIC values follow for various molecules
Report the value in µg/mL with no unit label.

Examples with answers:
C[C@@H](c1nc(-c2ccc(C#N)cc2)cs1)[C@](O)(Cn1cncn1)c1ccc(F)cc1F = 32
CC[C@@H]([C@H](C)O)n1ncn(-c2ccc(N3CCN(c4ccc(OC[C@@H]5CO[C@@](Cn6cncn6)(c6ccc(F)cc6F)C5)cc4)CC3)cc2)c1=O = 16
C[C@@H](c1ncncc1F)[C@](O)(Cn1cncn1)c1ccc(F)cc1F = 8

Ask: Which value of MIC has been reported for `C[C@@H](OCC#Cc1ccncc1)[C@](O)(Cn1cncn1)c1ccc(F)cc1F` in the records?
Result: 4

Ask: May I ask what MIC has been recorded for `C[C@@H](OCC#Cc1ccc(F)cc1F)[C@](O)(Cn1cncn1)c1ccc(F)cc1F` ?
Result: 32

Ask: Quick check: MIC of `C[C@@H](OCC#Cc1ccc(C#N)cc1)[C@](O)(Cn1cncn1)c1ccc(F)cc1F` ?
Result: 16

* * *

assay comment: Cytotoxicity against HUVEC cells assessed as reduction in cell survival incubated for 24 hrs by CCK-8 assay
Assay type: toxicity, cell-based
condition info: human
The molecules listed here are annotated with their IC50 at 24 h.

Some solved entries appear below for comparison.
C[C@@H](OCC#Cc1ccncc1)[C@](O)(Cn1cncn1)c1ccc(F)cc1F = 64.9 µg/mL
C[C@@H](OCC#Cc1ccc(F)cc1F)[C@](O)(Cn1cncn1)c1ccc(F)cc1F = 76.4 µg/mL

Okay, now this molecule:
Ask: Please give the measured IC50 at 24 h for this molecule: `C[C@@H](OCC#Cc1ccc(C#N)cc1)[C@](O)(Cn1cncn1)c1ccc(F)cc1F`
Result: 88.5 µg/mL

* * *

# microsomal CLint at 1 µM per entry
assay comment: Metabolic stability in human liver microsomes assessed as intrinsic clearance at 1 uM preincubated for 10 mins followed by NADPH addition and measured upto 60 mins by LC-MS/MS analysis
Type: ADME, Microsome
condition info: time < 70 min, read-out: CLH
State the answer as a number, implicitly in µL/min/mg.

C[C@@H](OCC#Cc1ccc(C#N)cc1)[C@](O)(Cn1cncn1)c1ccc(F)cc1F = 25.6
C[C@@H](OCC#Cc1ccncc1)[C@](O)(Cn1cncn1)c1ccc(F)cc1F = 188
Cc1ncc2n1-c1ccc(Cl)cc1C(c1ccccc1F)=NC2 = 297

As a next step, examine the compound that follows.
Ask: Any idea what microsomal CLint at 1 µM was measured for `C[C@@H](OCC#Cc1ccc(F)cc1F)[C@](O)(Cn1cncn1)c1ccc(F)cc1F` ?
Result: 26.2

* * *

Measured MIC by item
Tested on: Nakaseomyces glabratus
assay comment: Antifungal activity against Candida glabrata 537 assessed as inhibition of fungal growth incubated for 48 hrs by microbroth dilution method
Assay type: functional
Your answer should be a plain number; it is taken to be in µg/mL.

Cc1ccccc1C#CCO[C@H](C)[C@](O)(Cn1cncn1)c1ccc(F)cc1F = 0.25
C[C@@H](OCC#Cc1cccc(Cl)c1Cl)[C@](O)(Cn1cncn1)c1ccc(F)cc1F = 1
C[C@@H](OCC#Cc1ccccc1Cl)[C@](O)(Cn1cncn1)c1ccc(F)cc1F = 0.25
C[C@@H](OCC#Cc1ccc(OC(F)(F)F)cc1)[C@](O)(Cn1cncn1)c1ccc(F)cc1F = 2

Ask: Quick check: MIC of `C[C@@H](OCC#Cc1c(Cl)cccc1Cl)[C@](O)(Cn1cncn1)c1ccc(F)cc1F` ?
Result: 0.25

Ask: Requested field: MIC. Item: `C[C@@H](OCC#Cc1ccc(C(F)(F)F)cc1)[C@](O)(Cn1cncn1)c1ccc(F)cc1F`
Result: 1

* * *

assay comment: Cytotoxicity against HUVEC cells assessed as cell survival at <16 ug/ml incubated for 24 hrs by CCK-8 assay relative to control
Format: toxicity, cell-based
condition info: human, dose < 16 µg/ml, read-out: Survival
readout label: viability at 24 h

C[C@@H]1[C@H](O)[C@@H](C)/C=C/C=C/C=C/C=C/C=C/C=C/C=C/[C@H](O[C@@H]2O[C@H](C)[C@@H](O)[C@H](N)[C@@H]2O)C[C@@H]2O[C@](O)(C[C@@H](O)C[C@@H](O)[C@H](O)CC[C@@H](O)C[C@@H](O)CC(=O)O[C@H]1C)C[C@H](O)[C@H]2C(=O)O = 50%
C[C@@H](OCC#Cc1ccncc1)[C@](O)(Cn1cncn1)c1ccc(F)cc1F = > 80%
C[C@@H](OCC#Cc1ccc(F)cc1F)[C@](O)(Cn1cncn1)c1ccc(F)cc1F = > 80%

Consider the additional molecule presented here.
Ask: Please give the measured viability at 24 h for this molecule: `C[C@@H](OCC#Cc1ccc(C#N)cc1)[C@](O)(Cn1cncn1)c1ccc(F)cc1F`
Result: > 80%

* * *

The molecules listed here are annotated with their MIC.
Tested on: [Candida] auris
assay comment: Antifungal activity against fluconazole-resistant Candida auris 919 assessed as inhibition of fungal growth incubated for 48 hrs by microbroth dilution method
Assay type: functional
condition info: Candidozyma auris
Unit µg/mL implied. Number only.

Recorded results for 4 molecules are shown here.
C[C@@H](OCC#Cc1ccc(F)cc1)[C@](O)(Cn1cncn1)c1ccc(F)cc1F = 16
C[C@@H](OCC#Cc1ccc(C#N)cc1)[C@](O)(Cn1cncn1)c1ccc(F)cc1F = 16
C[C@@H](OCC#Cc1ccc(Cl)cc1)[C@](O)(Cn1cncn1)c1ccc(F)cc1F = 8
C[C@@H](c1nc(-c2ccc(C#N)cc2)cs1)[C@](O)(Cn1cncn1)c1ccc(F)cc1F = 1

Consider the record given below.
Ask: Could you tell me which MIC is on file for `C[C@@H](OCC#Cc1ccncc1)[C@](O)(Cn1cncn1)c1ccc(F)cc1F` ?
Result: 16

* * *

# MIC per entry
System: Pichia kudriavzevii
assay comment: Antifungal activity against Candida krusei 4996 assessed as inhibition of fungal growth incubated for 48 hrs by microbroth dilution method
Assay type: functional
Output spec: scalar in µg/mL, unitless text.

OC(Cn1cncn1)(Cn1cncn1)c1ccc(F)cc1F = 64
C[C@@H](OCC#Cc1ccc(C(F)(F)F)cc1)[C@](O)(Cn1cncn1)c1ccc(F)cc1F = 64
C[C@@H](OCC#Cc1ccccc1Cl)[C@](O)(Cn1cncn1)c1ccc(F)cc1F = 8
C[C@@H](OCC#Cc1ccc(OC(F)(F)F)cc1)[C@](O)(Cn1cncn1)c1ccc(F)cc1F = 64
C[C@@H](OCC#Cc1cccnc1)[C@](O)(Cn1cncn1)c1ccc(F)cc1F = 4
Cc1ccc(C#CCO[C@H](C)[C@](O)(Cn2cncn2)c2ccc(F)cc2F)cc1 = 32

Consider the record given below.
Ask: Hi! What's the reported MIC for `Cc1ccccc1C#CCO[C@H](C)[C@](O)(Cn1cncn1)c1ccc(F)cc1F` on Pichia kudriavzevii?
Result: 16

* * *

The following compounds are shown together with reported MIC values.
Test system: Nakaseomyces glabratus
assay comment: Antifungal activity against Candida glabrata 537 assessed as inhibition of fungal growth incubated for 48 hrs by microbroth dilution method
Type: functional

Ask: Lab note: need MIC for `C[C@@H](OCC#Cc1ccccc1F)[C@](O)(Cn1cncn1)c1ccc(F)cc1F` on Nakaseomyces glabratus, anyone have it?
Result: ≤ 0.125 µg/mL

Ask: Look up MIC with Nakaseomyces glabratus for this compound: `C[C@@H](OCC#Cc1ccccn1)[C@](O)(Cn1cncn1)c1ccc(F)cc1F`
Result: ≤ 0.125 µg/mL

Ask: Find the measured MIC: item `C[C@@H](OCC#Cc1ccc(F)cc1F)[C@](O)(Cn1cncn1)c1ccc(F)cc1F` , target or system Nakaseomyces glabratus.
Result: ≤ 0.125 µg/mL

Ask: Item `C[C@@H](OCC#Cc1ccncc1)[C@](O)(Cn1cncn1)c1ccc(F)cc1F` with Nakaseomyces glabratus - MIC?
Result: ≤ 0.125 µg/mL

Ask: State its MIC on Nakaseomyces glabratus: `C[C@@H](OCC#Cc1cc(Cl)ccc1Cl)[C@](O)(Cn1cncn1)c1ccc(F)cc1F`
Result: ≤ 0.125 µg/mL

* * *

Test system: Nakaseomyces glabratus
assay comment: Antifungal activity against Candida glabrata 537 assessed as inhibition of fungal growth incubated for 48 hrs by microbroth dilution method
Assay type: functional
readout label: MIC

C[C@@H](c1nc(-c2ccc(C#N)cc2)cs1)[C@](O)(Cn1cncn1)c1ccc(F)cc1F [RAVUCONAZOLE] = ≤ 0.125 µg/mL
C[C@@H](OCC#Cc1c(Cl)cc(Cl)cc1Cl)[C@](O)(Cn1cncn1)c1ccc(F)cc1F = ≤ 0.125 µg/mL
COc1ccc(C#CCO[C@H](C)[C@](O)(Cn2cncn2)c2ccc(F)cc2F)cc1 = 0.25 µg/mL
OC(Cn1cncn1)(Cn1cncn1)c1ccc(F)cc1F [FLUCONAZOLE] = 1 µg/mL

Ask: I'd like to know its MIC. The compound in question is `C[C@@H](OCC#Cc1ccc(Cl)cc1Cl)[C@](O)(Cn1cncn1)c1ccc(F)cc1F`
Result: 0.25 µg/mL

Ask: Recorded MIC of `C[C@@H](OCC#Cc1ccccc1)[C@](O)(Cn1cncn1)c1ccc(F)cc1F` , please.
Result: ≤ 0.125 µg/mL

Ask: Consider the compound `C[C@@H](OCC#Cc1ccc(Cl)cc1)[C@](O)(Cn1cncn1)c1ccc(F)cc1F` and give its measured MIC.
Result: ≤ 0.125 µg/mL

Ask: Consider the compound `C[C@@H](OCC#Cc1cccnc1)[C@](O)(Cn1cncn1)c1ccc(F)cc1F` and give its measured MIC.
Result: ≤ 0.125 µg/mL
